# MEASURED_ON: Metabotropic glutamate receptor 8 (Rattus norvegicus)
# PROTOCOL: mGluR8 Gi/Go-coupled signaling modulation – cell-based, rat, thallium flux, HTS, primary screen (AID 488969)
# CONDITION_LABEL: HEK293 rat mGluR8, GIRK (G protein-gated inwardly rectifying potassium channel) thallium flux, FluoZin2; at 10 µM; stronger effect = higher value; submaximal glutamate (EC20) added with thallium
The full ranking holds about 110,000 compounds; the median of “z-score” is about -0.1, and the highest 2% start at about 2. The sample as a whole holds a higher share of the highest values than the screen did.
Assign yes whenever z-score does not fall below 0.2; assign no whenever it does.

{"MOLECULE": "CCCCN(CCCC)S(=O)(=O)c1ccc(NC(=O)c2ccc([N+](=O)[O-])cc2Cl)cc1", "MEASURED_ON": "Metabotropic glutamate receptor 8 (Rattus norvegicus)", "ASSIGNED_CATEGORY": "yes"}
{"MOLECULE": "Cc1cccc(C)c1OCC(=O)NCc1nnc(SCC(=O)NC2CCCCC2C)n1C (stereo unspecified)", "MEASURED_ON": "Metabotropic glutamate receptor 8 (Rattus norvegicus)", "ASSIGNED_CATEGORY": "no"}
{"MOLECULE": "Cc1ccc(C)n1-c1ccc(C(=O)NN)cc1", "MEASURED_ON": "Metabotropic glutamate receptor 8 (Rattus norvegicus)", "ASSIGNED_CATEGORY": "yes"}
{"MOLECULE": "COc1ccc(CNC(=S)Nc2cccc(C)c2C)cc1", "MEASURED_ON": "Metabotropic glutamate receptor 8 (Rattus norvegicus)", "ASSIGNED_CATEGORY": "no"}
{"MOLECULE": "CCc1ccccc1NC(=O)CSc1nc2c(c(-c3ccco3)c1C#N)CCCC2", "MEASURED_ON": "Metabotropic glutamate receptor 8 (Rattus norvegicus)", "ASSIGNED_CATEGORY": "no"}
{"MOLECULE": "CCOC(=O)C1[C@H]2C(=O)N(CCCOC)C[C@]23C=C[C@H]1O3 (stereo partly specified)", "MEASURED_ON": "Metabotropic glutamate receptor 8 (Rattus norvegicus)", "ASSIGNED_CATEGORY": "no"}
{"MOLECULE": "CSc1ccc(N2CCN(CCCNC(=O)Nc3ccccc3F)CC2)cc1", "MEASURED_ON": "Metabotropic glutamate receptor 8 (Rattus norvegicus)", "ASSIGNED_CATEGORY": "yes"}
{"MOLECULE": "O=C(COc1ncnc2sccc12)N1CCc2ccccc2C1", "MEASURED_ON": "Metabotropic glutamate receptor 8 (Rattus norvegicus)", "ASSIGNED_CATEGORY": "no"}
{"MOLECULE": "C=CCn1c(SC2CCOC2=O)nc2sc(C)c(C)c2c1=O (stereo unspecified)", "MEASURED_ON": "Metabotropic glutamate receptor 8 (Rattus norvegicus)", "ASSIGNED_CATEGORY": "no"}
{"MOLECULE": "CCC(=O)N/C(=N/c1nc(C)cc(C)n1)Nc1cccc(OC)c1", "MEASURED_ON": "Metabotropic glutamate receptor 8 (Rattus norvegicus)", "ASSIGNED_CATEGORY": "no"}
{"MOLECULE": "Cc1c(C(=O)Oc2ccc(F)cc2)sc2ncn(Cc3cccc(F)c3)c(=O)c12", "MEASURED_ON": "Metabotropic glutamate receptor 8 (Rattus norvegicus)", "ASSIGNED_CATEGORY": "no"}
{"MOLECULE": "O=C(CSc1ccccc1Cl)NC1CCCc2ccccc21 (stereo unspecified)", "MEASURED_ON": "Metabotropic glutamate receptor 8 (Rattus norvegicus)", "ASSIGNED_CATEGORY": "no"}
{"MOLECULE": "O=S(=O)(NCc1ccccc1)c1ccc(Cl)c(S(=O)(=O)NCc2ccccc2)c1", "MEASURED_ON": "Metabotropic glutamate receptor 8 (Rattus norvegicus)", "ASSIGNED_CATEGORY": "no"}
{"MOLECULE": "CC(C)(C)C(=O)Nc1ccc(-c2cn3ccsc3n2)cc1", "MEASURED_ON": "Metabotropic glutamate receptor 8 (Rattus norvegicus)", "ASSIGNED_CATEGORY": "no"}
{"MOLECULE": "COc1cccc(-c2nnc(SCc3nc4ccccc4s3)n2C)c1", "MEASURED_ON": "Metabotropic glutamate receptor 8 (Rattus norvegicus)", "ASSIGNED_CATEGORY": "no"}
{"MOLECULE": "COc1cc(-c2cc3nc(C)c(C)c(=O)n3[nH]2)cc(OC)c1OC", "MEASURED_ON": "Metabotropic glutamate receptor 8 (Rattus norvegicus)", "ASSIGNED_CATEGORY": "yes"}
{"MOLECULE": "C=C(C)C1CC=C(CN2CCC(C(=O)OCC)CC2)CC1 (stereo unspecified)", "MEASURED_ON": "Metabotropic glutamate receptor 8 (Rattus norvegicus)", "ASSIGNED_CATEGORY": "yes"}
{"MOLECULE": "Cc1ccc(C)n1-c1ccc(C(=O)O)cc1", "MEASURED_ON": "Metabotropic glutamate receptor 8 (Rattus norvegicus)", "ASSIGNED_CATEGORY": "no"}
{"MOLECULE": "O=C(CCNc1ccccc1)c1cccc([N+](=O)[O-])c1", "MEASURED_ON": "Metabotropic glutamate receptor 8 (Rattus norvegicus)", "ASSIGNED_CATEGORY": "no"}
{"MOLECULE": "CN(C)S(=O)(=O)c1ccc(NC(=O)/C=C/c2ccccc2Cl)cc1", "MEASURED_ON": "Metabotropic glutamate receptor 8 (Rattus norvegicus)", "ASSIGNED_CATEGORY": "no"}
{"MOLECULE": "CCOc1ccc2[nH]cc(C(=O)N3CCN(C4CCCCC4)CC3)c(=O)c2c1", "MEASURED_ON": "Metabotropic glutamate receptor 8 (Rattus norvegicus)", "ASSIGNED_CATEGORY": "no"}
{"MOLECULE": "CCCOc1ccc(N2C(=O)CC(N(CCc3ccc(OC)cc3)C(=O)c3cccc(F)c3)C2=O)cc1 (stereo unspecified)", "MEASURED_ON": "Metabotropic glutamate receptor 8 (Rattus norvegicus)", "ASSIGNED_CATEGORY": "no"}
{"MOLECULE": "CC(=O)N(/N=C1\\Sc2ccccc2C1=O)c1ccc(C)cc1C", "MEASURED_ON": "Metabotropic glutamate receptor 8 (Rattus norvegicus)", "ASSIGNED_CATEGORY": "no"}
{"MOLECULE": "S=C1NCCc2ccccc2C1c1ccccc1 (stereo unspecified)", "MEASURED_ON": "Metabotropic glutamate receptor 8 (Rattus norvegicus)", "ASSIGNED_CATEGORY": "no"}
{"MOLECULE": "O=S(=O)(NCc1ccccc1)c1ccc(Cl)cc1", "MEASURED_ON": "Metabotropic glutamate receptor 8 (Rattus norvegicus)", "ASSIGNED_CATEGORY": "yes"}
{"MOLECULE": "O=[N+]([O-])c1cnccc1Nc1cccc(F)c1", "MEASURED_ON": "Metabotropic glutamate receptor 8 (Rattus norvegicus)", "ASSIGNED_CATEGORY": "yes"}
{"MOLECULE": "CC(C)(C)C(=O)Nc1ccccc1C(=O)OCC(=O)c1ccc2c(c1)OCCO2", "MEASURED_ON": "Metabotropic glutamate receptor 8 (Rattus norvegicus)", "ASSIGNED_CATEGORY": "no"}
{"MOLECULE": "Cc1cc(C)n(-c2ccc(C)c(Cl)c2)n1", "MEASURED_ON": "Metabotropic glutamate receptor 8 (Rattus norvegicus)", "ASSIGNED_CATEGORY": "no"}
{"MOLECULE": "O=C(NCCCc1ccccc1)Nc1ccccc1", "MEASURED_ON": "Metabotropic glutamate receptor 8 (Rattus norvegicus)", "ASSIGNED_CATEGORY": "yes"}
{"MOLECULE": "O=S(=O)(NCCCc1ccccc1)c1ccc(Cl)cc1", "MEASURED_ON": "Metabotropic glutamate receptor 8 (Rattus norvegicus)", "ASSIGNED_CATEGORY": "no"}
{"MOLECULE": "CCCCC1CC1C(=O)Nc1ncc2c(n1)CC(C)(C)CC2=O (stereo unspecified)", "MEASURED_ON": "Metabotropic glutamate receptor 8 (Rattus norvegicus)", "ASSIGNED_CATEGORY": "no"}
{"MOLECULE": "O=C(CN1C(=O)COc2ccccc21)NCCCN1CCc2ccccc2C1", "MEASURED_ON": "Metabotropic glutamate receptor 8 (Rattus norvegicus)", "ASSIGNED_CATEGORY": "yes"}
{"MOLECULE": "CC1(C)CC(=O)c2cnc(NC(=O)CCc3ccccc3)nc2C1", "MEASURED_ON": "Metabotropic glutamate receptor 8 (Rattus norvegicus)", "ASSIGNED_CATEGORY": "no"}
{"MOLECULE": "CN(C)c1ccc(NC(=O)c2ccc([N+](=O)[O-])cc2Cl)cc1", "MEASURED_ON": "Metabotropic glutamate receptor 8 (Rattus norvegicus)", "ASSIGNED_CATEGORY": "no"}
{"MOLECULE": "O=C(COc1cccc2cccnc12)N1CCc2ccccc2C1", "MEASURED_ON": "Metabotropic glutamate receptor 8 (Rattus norvegicus)", "ASSIGNED_CATEGORY": "yes"}
{"MOLECULE": "COc1cc(OC)cc(-c2cc3nc(C)c(CCC(=O)O)c(=O)n3[nH]2)c1", "MEASURED_ON": "Metabotropic glutamate receptor 8 (Rattus norvegicus)", "ASSIGNED_CATEGORY": "yes"}
{"MOLECULE": "CCOc1ccccc1-c1nc(C(N)=O)c2[nH]c(=O)n(-c3cccc(C)c3)c2n1", "MEASURED_ON": "Metabotropic glutamate receptor 8 (Rattus norvegicus)", "ASSIGNED_CATEGORY": "no"}
{"MOLECULE": "COc1cccc(C(=O)/C=C/c2ccc(SC)cc2)c1", "MEASURED_ON": "Metabotropic glutamate receptor 8 (Rattus norvegicus)", "ASSIGNED_CATEGORY": "no"}
{"MOLECULE": "O=C(/C=C/c1ccc(OCc2ccccc2)c(OCc2ccccc2)c1)c1cccnc1", "MEASURED_ON": "Metabotropic glutamate receptor 8 (Rattus norvegicus)", "ASSIGNED_CATEGORY": "yes"}
{"MOLECULE": "O=C(NCCc1ccc(Cl)cc1)Nc1cccc(Cl)c1", "MEASURED_ON": "Metabotropic glutamate receptor 8 (Rattus norvegicus)", "ASSIGNED_CATEGORY": "yes"}
{"MOLECULE": "CCCCOC(=O)n1c(=S)oc2cc(Cl)ccc21", "MEASURED_ON": "Metabotropic glutamate receptor 8 (Rattus norvegicus)", "ASSIGNED_CATEGORY": "no"}
{"MOLECULE": "CCn1c(SCc2nc3ccccc3c(=O)[nH]2)nc2ccccc2c1=O", "MEASURED_ON": "Metabotropic glutamate receptor 8 (Rattus norvegicus)", "ASSIGNED_CATEGORY": "no"}
{"MOLECULE": "C=CCSc1nc2sc3c(c2c(=O)n1CC)CCc1ccccc1-3", "MEASURED_ON": "Metabotropic glutamate receptor 8 (Rattus norvegicus)", "ASSIGNED_CATEGORY": "yes"}
{"MOLECULE": "CC1CCCN(c2nc3ccccc3nc2C(C#N)S(=O)(=O)c2cccs2)C1 (stereo unspecified)", "MEASURED_ON": "Metabotropic glutamate receptor 8 (Rattus norvegicus)", "ASSIGNED_CATEGORY": "no"}
{"MOLECULE": "COC(=O)C1=C(C)NC(C)=C(C(=O)OC)C1C(=O)OCC(=O)N1c2ccccc2CC1C (stereo unspecified)", "MEASURED_ON": "Metabotropic glutamate receptor 8 (Rattus norvegicus)", "ASSIGNED_CATEGORY": "no"}
{"MOLECULE": "CCCCC(=O)Nc1ncc2c(n1)CC(C)(C)CC2=O", "MEASURED_ON": "Metabotropic glutamate receptor 8 (Rattus norvegicus)", "ASSIGNED_CATEGORY": "yes"}
